This collection of values is drawn from the supplement of paper PMC12645437.

Catalogue of sequences with associated log2 fold change of degron read counts
Target: T1, CRBN, Q96SW2;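 further: pooled lentiviral library of zinc finger degron-EGFP fusions in mCherry-positive Jurkat cells, FACS-sorted after compound exposure, with degron abundance counted by next-generation sequencing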
T1 chain: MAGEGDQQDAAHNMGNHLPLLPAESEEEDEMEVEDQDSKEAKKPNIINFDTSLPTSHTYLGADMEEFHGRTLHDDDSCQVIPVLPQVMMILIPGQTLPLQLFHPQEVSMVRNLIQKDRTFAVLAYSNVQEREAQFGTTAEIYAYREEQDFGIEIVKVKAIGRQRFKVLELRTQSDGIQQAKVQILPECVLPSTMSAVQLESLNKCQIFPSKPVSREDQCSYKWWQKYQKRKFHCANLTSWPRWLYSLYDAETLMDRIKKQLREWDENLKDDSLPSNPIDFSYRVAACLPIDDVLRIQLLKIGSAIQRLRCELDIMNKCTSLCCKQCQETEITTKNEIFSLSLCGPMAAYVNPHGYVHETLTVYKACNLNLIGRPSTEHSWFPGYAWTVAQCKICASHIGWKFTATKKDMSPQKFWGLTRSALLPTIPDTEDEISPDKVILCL
Assay: log2 fold change of degron read counts, EGFP-low vs EGFP+ sorted cells (limma voom), compound-induced degradation; higher = more compound-induced degradation of the degron-EGFP fusion; degrons are variants of IKZF1/3 zinc finger 2; compound dose not given here
Details: Jurkat; 18 h; compound: compound 33 (diphenyl IMiD analogue)
Whole data set: some 8,300 sequences, median “log2 fold change of degron read counts, EGFP-low vs EGFP+ sorted cells (limma voom), compound-induced degradation” near -1.1, cut for the highest 2% near 3.2. Many of the other results were omitted from the sample, so the highest values are more common in it than they were.
reported property: log2 fold change of degron read counts

>>> df
                                biosequence  readout_value
0  FFCNQCGRSFTQKGNLLRHIKL [46F_47F_49N_50Q_52G_53R_54S_55F_67L_, Q9UKT9]          -2.54
1  FMCEICGAMFTQKGNLLRHIKL [46F_47M_49E_50I_52G_53A_54M_55F_67L_, Q9UKT9]            1.9
2  FRCEICGRHFTQKGNLLRHIKL [46F_47R_49E_50I_52G_53R_54H_55F_67L_, Q9UKT9]          -1.24
3  FCCEICGHIFTQKGNLLRHIKL [46F_47C_49E_50I_52G_53H_54I_55F_67L_, Q9UKT9]          -1.42
4  LTCPICGFNCTQKGNLLRHIKL [46L_47T_49P_50I_52G_53F_54N_55C_67L_, Q9UKT9]           2.24
5  FGCEICGAMFTQKGNLLRHIKL [46F_47G_49E_50I_52G_53A_54M_55F_67L_, Q9UKT9]           1.39
6  FWCEICGAMFTQKGNLLRHIKL [46F_47W_49E_50I_52G_53A_54M_55F_67L_, Q9UKT9]           2.34
